Listing: pEC50 of selected molecules
# Tested on: W466-resistant populations
# EXPERIMENTAL PROTOCOL: 72 h growth assay against W466-resistant populations
# Format: cell-based, Plasmodium falciparum
# RUN CONDITIONS: Plasmodium falciparum, read-out: W466-resistant populations EC50 (SD) #1
Would you please state pEC50, meaning minus log10 of the concentration in mol/L, as a bare number?

Please review the entries below; each comes with its answer.
[
  {
    "MOLECULE": "COc1cc2[nH]c(C)c(-c3ccc(Oc4ccc(OC(F)(F)F)cc4)cc3)c(=O)c2cc1Cl [ELQ300]",
    "REPORTED PROPERTY": "pEC50",
    "VALUE REPORTED": 7.44
  },
  {
    "MOLECULE": "Cc1cc(Nc2ccc(S(F)(F)(F)(F)F)cc2)n2nc(C(C)(F)F)nc2n1 [DSM265]",
    "REPORTED PROPERTY": "pEC50",
    "VALUE REPORTED": 7.72
  }
]

pEC50 reported for this molecule O=C(NC1CC1)c1ccc(CN(Cc2ccc(Cl)cc2Cl)C2CC2)cc1 [W499 (2)] : 6.55

pEC50 reported for this molecule O=C1C(O)=C([C@H]2CC[C@H](c3ccc(Cl)cc3)CC2)C(=O)c2ccccc21 [ATQ, atovaquone] : 8.70

* * *

Listing: pEC50 of selected compounds
# Test system: male gamete
# EXPERIMENTAL PROTOCOL: Dual gamete formation assay, male gametes
# Format: cell-based
# RUN CONDITIONS: Plasmodium falciparum; NF54 parasites in a DGFA, 4 replicates
Would you please state pEC50, meaning minus log10 of the concentration in mol/L, as a bare number?

Please review the entries below; each comes with its answer.
[
  {
    "COMPOUND": "O=C(NC1CC1)c1ccc(CN(Cc2ccc(Cl)cc2Cl)C2CC2)cc1 [W499 (2)]",
    "ASSAY TARGET": "male gamete",
    "pEC50": 6.12
  },
  {
    "COMPOUND": "CCCN(Cc1ccc(C(=O)NC2CC2)cc1)Cc1ccc(C(C)(C)C)cc1 [Compound 107]",
    "ASSAY TARGET": "male gamete",
    "pEC50": 7.10
  }
]

pEC50 reported for this compound CCCN(Cc1ccc(C(=O)NC2CC2)cc1)Cc1c(C)cc(C)cc1C [Compound 110] : 6.55

* * *

# EXPERIMENTAL PROTOCOL: Aqueous solubility (kinetic in PBS, pH 7.4)
# Assay type: physicochemical
# RUN CONDITIONS: phosphate buffered saline
REPORTED PROPERTY: solubility at 2 h (µM)
Value expressed in µM; do not type the unit.

[
  {
    "COMPOUND": "CCCN(Cc1ccc(C(=O)NC2CC2)cc1)Cc1ccc(C(C)(C)C)cc1",
    "UNIT OF MEASUREMENT": "µM",
    "solubility at 2 h": 10
  },
  {
    "COMPOUND": "O=C(NC1CC1)c1ccc(CN(Cc2ccccc2)CC(F)(F)F)cc1",
    "UNIT OF MEASUREMENT": "µM",
    "solubility at 2 h": 11
  },
  {
    "COMPOUND": "O=C(NC1CC1)c1ccc(CN(Cc2ccccc2)C2CCC2)cc1",
    "UNIT OF MEASUREMENT": "µM",
    "solubility at 2 h": 92
  },
  {
    "COMPOUND": "O=C(NC1CC1)c1ccc(CN(Cc2ccccc2)C2CC2)cc1",
    "UNIT OF MEASUREMENT": "µM",
    "solubility at 2 h": 44
  }
]

Let's switch to this compound now.
solubility at 2 h reported for this compound O=C(NC1CC1)c1ccc(CN(Cc2ccc(Cl)cc2Cl)C2CC2)cc1 : 7.4
